Sourced from the supplement of paper PMC7877785

# experimentalProtocol: self-splicing fitness, log relative to wild type (ln ratio); higher = more splicing; Tetrahymena group I intron in knt gene, E. coli kanamycin selection, DiMSum; sequences stand for … in CUCUCU…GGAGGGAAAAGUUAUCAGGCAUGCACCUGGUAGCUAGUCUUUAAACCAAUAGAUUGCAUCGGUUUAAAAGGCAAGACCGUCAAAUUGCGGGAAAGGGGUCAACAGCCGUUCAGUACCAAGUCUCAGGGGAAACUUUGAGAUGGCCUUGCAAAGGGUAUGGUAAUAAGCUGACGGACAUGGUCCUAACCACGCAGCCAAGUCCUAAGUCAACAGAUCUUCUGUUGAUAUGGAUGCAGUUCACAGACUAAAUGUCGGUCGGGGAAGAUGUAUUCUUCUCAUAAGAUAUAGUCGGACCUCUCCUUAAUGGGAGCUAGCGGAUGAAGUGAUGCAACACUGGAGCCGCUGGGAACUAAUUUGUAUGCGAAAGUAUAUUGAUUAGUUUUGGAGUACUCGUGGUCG;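 also: selection with 25 µg/mL kanamycin versus none on LB agar overnight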
# protocolConditions: 30 °C

querySequence	self-splicing fitness (ln)
GUCAAGCAAUAUUACGCUUC	-4.61
GUCGAGCAAUAUUACGGGGA	-2.91
GAUUAGCAAUAUUACGUUAC	-2.63
CACAAGCAAUAUUACGCAUU	-2.9
GUGAAGCAAUAUUACGCUCA	-1.35
UACAAGCAAUAUUACGGGAG	-3.1
AUAAAGCAAUAUUACGGGAA	-1.08
GCCGAGCAAUAUUACGGCCU	-2.54
CGUUAGCAAUAUUACGUGGA	-2.98
CAUAAGCAAUAUUACGUCGG	-0.598
GAAAAGCAAUAUUACGUCGC	-1.38
AAUAAGCAAUAUUACGGUCG	-1.03
CAUUAGCAAUAUUACGGCUA	-2.88
CUUUAGCAAUAUUACGGCCG	-0.432
CCGGAGCAAUAUUACGCGAU	-3.82
AGUGAGCAAUAUUACGUCGG	-3.07
UAAGAGCAAUAUUACGGUCU	-3.26
GAUCAGCAAUAUUACGACGU	0.142
CCUUAGCAAUAUUACGUGCC	-4.23
ACUUAGCAAUAUUACGUAUU	-2.02
GCUAAGCAAUAUUACGGCUC	-0.551
CGGCAGCAAUAUUACGCCUG	-0.88
ACUAAGCAAUAUUACGUAGC	-2.96
AAUAAGCAAUAUUACGGCUU	-0.403
CAACAGCAAUAUUACGUACA	-2.28
GGUUAGCAAUAUUACGCCGA	-1.52
UUUCAGCAAUAUUACGAGUC	-3.12
CGCCAGCAAUAUUACGCCGU	-2.59
CUGAAGCAAUAUUACGGUGU	-3.3
ACGCAGCAAUAUUACGCAAU	-1.76
UGUUAGCAAUAUUACGUCGG	-0.97
AUCGAGCAAUAUUACGGCCC	-3.15
GUGUAGCAAUAUUACGAUCU	-1.04
UAACAGCAAUAUUACGUUUU	-3.39

----------
# experimentalProtocol: self-splicing fitness, log relative to wild type (ln ratio); higher = more splicing; Tetrahymena group I intron in knt gene, E. coli kanamycin selection, DiMSum; sequences stand for … in CUCUCU…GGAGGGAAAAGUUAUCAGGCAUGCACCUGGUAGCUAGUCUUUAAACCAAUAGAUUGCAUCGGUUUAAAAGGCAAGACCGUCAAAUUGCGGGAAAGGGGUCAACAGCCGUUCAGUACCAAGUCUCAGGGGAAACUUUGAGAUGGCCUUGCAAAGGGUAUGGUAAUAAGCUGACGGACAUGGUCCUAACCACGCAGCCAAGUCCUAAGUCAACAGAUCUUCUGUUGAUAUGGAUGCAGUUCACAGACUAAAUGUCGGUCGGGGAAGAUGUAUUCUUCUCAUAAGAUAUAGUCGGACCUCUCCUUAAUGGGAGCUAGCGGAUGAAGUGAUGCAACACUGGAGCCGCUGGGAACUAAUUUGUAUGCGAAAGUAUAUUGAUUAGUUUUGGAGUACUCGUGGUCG
# protocolConditions: 37 °C
Kind request: treat -1 as inclusive, so self-splicing fitness (ln) at -1 or higher is 1, anything lower is 0.

querySequence	categoryLabel
CAGCAGCAAUAUUACGCGGC	0
CGAGAGCAAUAUUACGCUGU	0
UGACAGCAAUAUUACGAAUA	1
ACCUAGCAAUAUUACGGGUU	0
CCAAAGCAAUAUUACGCAGG	0
CGUUAGCAAUAUUACGAUGG	1
AAGUAGCAAUAUUACGCGCC	1
AUGCAGCAAUAUUACGCUGA	0
UUAAAGCAAUAUUACGUAUG	1
GACCAGCAAUAUUACGCGAG	1
GGAGAGCAAUAUUACGCUCG	0
CGGUAGCAAUAUUACGGCUG	0
CACUAGCAAUAUUACGCAAC	0
CAUUAGCAAUAUUACGCCCU	0
GCCGAGCAAUAUUACGGGAU	1
GACCAGCAAUAUUACGCGAU	0
CGAUAGCAAUAUUACGCGAC	0
AAGAAGCAAUAUUACGCAAA	1
UUAAAGCAAUAUUACGGAUC	1
GCCAAGCAAUAUUACGGCUC	1
CCUUAGCAAUAUUACGUGCC	0
AAUUAGCAAUAUUACGAGCU	1
GUUCAGCAAUAUUACGACAU	1
AUUGAGCAAUAUUACGGAUA	0
AGUAAGCAAUAUUACGAACG	1
AUUCAGCAAUAUUACGUCCA	0
UGGAAGCAAUAUUACGCGCG	1
GUAAAGCAAUAUUACGGCAC	1
AUCAAGCAAUAUUACGGCAA	1
AUCAAGCAAUAUUACGUACC	1
GGAAAGCAAUAUUACGCAGU	0
AUCUAGCAAUAUUACGGCAC	1
UAUUAGCAAUAUUACGCAUU	0

----------
# experimentalProtocol: self-splicing fitness, log relative to wild type (ln ratio); higher = more splicing; Tetrahymena group I intron in knt gene, E. coli kanamycin selection, DiMSum; sequences stand for … in CUCUCU…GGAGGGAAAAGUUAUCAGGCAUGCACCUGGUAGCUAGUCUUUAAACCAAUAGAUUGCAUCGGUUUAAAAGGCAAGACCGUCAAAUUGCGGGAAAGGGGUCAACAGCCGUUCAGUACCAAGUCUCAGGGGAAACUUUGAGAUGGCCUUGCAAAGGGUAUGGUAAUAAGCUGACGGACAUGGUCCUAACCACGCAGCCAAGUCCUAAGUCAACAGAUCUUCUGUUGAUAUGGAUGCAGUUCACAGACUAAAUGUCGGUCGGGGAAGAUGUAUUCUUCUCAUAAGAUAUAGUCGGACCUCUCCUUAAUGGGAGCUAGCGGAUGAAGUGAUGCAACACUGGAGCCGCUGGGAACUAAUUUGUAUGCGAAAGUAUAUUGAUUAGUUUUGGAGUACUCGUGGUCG
# protocolConditions: 30 °C
// map self-splicing fitness (ln) to label using small value: < -3; mid value: ≥ -3 and < -1; large value: ≥ -1

querySequence	categoryLabel
CCCAAGCAAUAUUACGGCCA	small value
AUCCAGCAAUAUUACGGCCU	large value
GGAUAGCAAUAUUACGAACA	mid value
AUGCAGCAAUAUUACGCCGC	large value
CAUAAGCAAUAUUACGGUAU	small value
AGAAAGCAAUAUUACGACCA	large value
UCUGAGCAAUAUUACGCCGG	mid value
ACUUAGCAAUAUUACGGACA	mid value
CUCCAGCAAUAUUACGCCGG	small value
CCGCAGCAAUAUUACGUAAC	small value
CAGCAGCAAUAUUACGCCGG	large value
GCGCAGCAAUAUUACGGGGG	mid value
CGCGAGCAAUAUUACGCGCC	mid value
GUAGAGCAAUAUUACGAAGA	small value
GAUUAGCAAUAUUACGUAUG	mid value
AGACAGCAAUAUUACGCACA	large value
CUUCAGCAAUAUUACGGAAA	mid value
ACUGAGCAAUAUUACGCAGG	small value
UUAUAGCAAUAUUACGUUGU	small value
UCCGAGCAAUAUUACGUUAA	mid value
UUUCAGCAAUAUUACGACUC	mid value
UUCCAGCAAUAUUACGUCGU	small value
CUGCAGCAAUAUUACGUGAA	small value
GGCGAGCAAUAUUACGUGCA	large value
GACGAGCAAUAUUACGUGCG	mid value
AAUUAGCAAUAUUACGGAUG	mid value
ACGCAGCAAUAUUACGGGCC	mid value
GAAGAGCAAUAUUACGGGCC	mid value
ACAGAGCAAUAUUACGCACG	small value
AUUCAGCAAUAUUACGAUGA	large value
GAUGAGCAAUAUUACGAUGG	mid value
UACCAGCAAUAUUACGCUGG	small value
CGGUAGCAAUAUUACGCCCC	mid value

----------
# experimentalProtocol: self-splicing fitness, log relative to wild type (ln ratio); higher = more splicing; Tetrahymena group I intron in knt gene, E. coli kanamycin selection, DiMSum; sequences stand for … in CUCUCU…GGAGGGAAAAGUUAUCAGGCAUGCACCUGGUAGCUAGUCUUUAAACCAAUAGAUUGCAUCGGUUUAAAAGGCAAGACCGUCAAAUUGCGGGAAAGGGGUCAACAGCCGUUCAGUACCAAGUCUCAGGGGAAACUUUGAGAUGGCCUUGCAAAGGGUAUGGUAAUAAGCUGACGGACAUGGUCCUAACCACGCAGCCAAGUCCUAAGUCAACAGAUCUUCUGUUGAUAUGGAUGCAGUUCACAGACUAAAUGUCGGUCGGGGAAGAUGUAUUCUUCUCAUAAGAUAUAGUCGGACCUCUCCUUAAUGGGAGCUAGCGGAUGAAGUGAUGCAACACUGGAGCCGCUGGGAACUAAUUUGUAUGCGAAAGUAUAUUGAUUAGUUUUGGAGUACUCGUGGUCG
# protocolConditions: 37 °C
Label fulfilled when self-splicing fitness (ln) is at or above -0.4; anything below gets not fulfilled.

querySequence	categoryLabel
CGACAGCAAUAUUACGCGCA	fulfilled
UUACAGCAAUAUUACGUCAU	not fulfilled
ACUUAGCAAUAUUACGGACU	fulfilled
UCAUAGCAAUAUUACGAGCC	not fulfilled
AUUCAGCAAUAUUACGUACU	fulfilled
UCUUAGCAAUAUUACGGAUU	not fulfilled
AGCAAGCAAUAUUACGACGG	not fulfilled
GCAAAGCAAUAUUACGGUUA	not fulfilled
